assay-target: T1, EsCas13d, nuclease-dead (Eubacterium siraeum, UniProt B0MS50, R295A;H300A;R849A;H854A)
T1 sequence: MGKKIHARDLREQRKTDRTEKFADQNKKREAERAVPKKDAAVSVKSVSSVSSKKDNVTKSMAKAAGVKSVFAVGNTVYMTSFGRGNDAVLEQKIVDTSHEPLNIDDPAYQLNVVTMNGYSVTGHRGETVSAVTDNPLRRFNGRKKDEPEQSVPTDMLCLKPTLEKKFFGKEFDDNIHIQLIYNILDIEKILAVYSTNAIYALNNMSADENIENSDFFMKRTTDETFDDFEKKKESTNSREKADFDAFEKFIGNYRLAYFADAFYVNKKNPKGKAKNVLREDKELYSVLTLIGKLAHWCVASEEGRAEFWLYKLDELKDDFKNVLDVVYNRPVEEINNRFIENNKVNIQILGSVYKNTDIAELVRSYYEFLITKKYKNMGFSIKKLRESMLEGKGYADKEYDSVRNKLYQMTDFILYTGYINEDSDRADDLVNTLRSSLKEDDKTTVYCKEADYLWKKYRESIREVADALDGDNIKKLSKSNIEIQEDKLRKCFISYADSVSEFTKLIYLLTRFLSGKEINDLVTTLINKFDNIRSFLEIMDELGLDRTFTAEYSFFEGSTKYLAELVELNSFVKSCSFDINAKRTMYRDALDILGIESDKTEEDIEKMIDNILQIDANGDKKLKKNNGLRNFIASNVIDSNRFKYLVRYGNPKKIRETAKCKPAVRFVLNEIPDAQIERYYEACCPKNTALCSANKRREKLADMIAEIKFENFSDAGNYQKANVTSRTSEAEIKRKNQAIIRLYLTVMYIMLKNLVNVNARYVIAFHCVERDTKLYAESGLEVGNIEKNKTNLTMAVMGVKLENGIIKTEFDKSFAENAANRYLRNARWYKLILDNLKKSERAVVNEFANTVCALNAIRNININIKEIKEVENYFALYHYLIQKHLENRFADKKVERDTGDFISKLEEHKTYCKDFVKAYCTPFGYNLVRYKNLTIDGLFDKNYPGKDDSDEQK
assay-details: crRNA (strand 1, pre-loaded); Mg2+; 40 mM Tris-HCl pH 7.5, 150 mM NaCl, 6 mM MgCl2, 1 mM DTT, 0.1% Tween-20, 0.2 mg/ml BSA; 25 C; 10 min per concentration, then washed
study-conditions: tags: His6-TwinStrep-SUMO cleaved; N-terminal SNAP kept (SNAP-Surface 488); label: 3' end held by stalled T7 RNA polymerase

binder	Kd, nM
target 2 MT 5'PFS ACU 3'PFS UAA (mixed) RNA 1: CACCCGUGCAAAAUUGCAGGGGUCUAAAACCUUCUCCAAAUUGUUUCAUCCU RNA 2: GGGAAUGGAUCCACAUCUACGAAUUCACUAGGAUGAAACAAUUUGGAGAAGUAAAGAUCGGAAGAGCACACGU	4
target 1 insU 3' of 18,insC 3' of 15 (mixed) RNA 1: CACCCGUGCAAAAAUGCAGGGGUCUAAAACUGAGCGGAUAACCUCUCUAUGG RNA 2: GGGAAUGGAUCCACAUCUACGAAUUCGUACCAUAUGAGCAGGUUAUCCGCUCACCGAGAUCGGAAGAGCACACGU	49
target 2 MT 5'PFS GGA 3'PFS CGA (mixed) RNA 1: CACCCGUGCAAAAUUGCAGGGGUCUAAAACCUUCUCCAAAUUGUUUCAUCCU RNA 2: GGGAAUGGAUCCACAUCUACGAAUUCGGAAGGAUGAAACAAUUUGGAGAAGCGAAGAUCGGAAGAGCACACGU	9.1
target 1 A1G,G12U (mixed) RNA 1: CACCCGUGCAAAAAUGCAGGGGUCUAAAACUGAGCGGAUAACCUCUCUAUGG RNA 2: GGGAAUGGAUCCACAUCUACGAAUUCGUACCAUAGAGAGUUUAUCCGCUCGCCGAGAUCGGAAGAGCACACGU	9.4

Hey, just so you know, these numbers are from paper PMC10786891.
